- assayed_system: T1, hCD137-mFc-Avi (human, UniProt Q07011 24-186)
- T1 construct: dimer; also called human CD137-mFc-Avi; human CD137-mFc
- test_details: cell-based, 100 nM hCD137-mFc-Avi with 200 nM antibody, competitor human CD137L on DO11.10 cells, GMFI normalised to G1/11D4 = 0 and G1/MOR7480.1 = 100; mean of n=2
parameter_measured: % CD137 ligand blocking activity (%)

>>> experimental_value("FS20-22-49AA/FS30-10-16 (bispecific antibody, human IgG1, kappa, L234A L235A, V domains shown, M97 (Kabat) to L against FS30-10; also called FS30-10-16 in mAb^2 format) VH: EVQLLESGGGLVQPGGSLRLSCAASGFTFSSYDMSWVRQAPGKGLEWVSDIDPTGSKTDYADSVKGRFTISRDNSKNTLYLQMNSLRAEDTAVYYCARDLLVYGFDYWGQGTLVTVSS VL: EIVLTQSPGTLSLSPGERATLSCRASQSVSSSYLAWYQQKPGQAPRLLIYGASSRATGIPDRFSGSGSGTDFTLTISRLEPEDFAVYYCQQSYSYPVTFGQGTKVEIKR")
76
>>> experimental_value("FS20-22-49AA/4420 (bispecific antibody, human IgG1, kappa, L234A L235A, V domains shown, anti-OX40 Fcab FS20-22-49AA with the Fab of anti-FITC antibody 4420; IgG1 LALA; also called negative control mAb^2) VH: EVKLDETGGGLVQPGRPMKLSCVASGFTFSDYWMNWVRQSPEKGLEWVAQIRNKPYNYETYYSDSVKGRFTISRDDSKSSVYLQMNNLRVEDMGIYYCTGSYYGMDYWGQGTSVTVSS VL: DVVMTQTPLSLPVSLGDQASISCRSSQSLVHSNGNTYLRWYLQKPGQSPKVLIYKVSNRFSGVPDRFSGSGSGTDFTLKISRVEAEDLGVYFCSQSTHVPWTFGGGTKLEIKR")
2
>>> experimental_value("FS20-22-49AA/FS30-5-37 (bispecific antibody, human IgG1, kappa, L234A L235A, V domains shown, M100D to I and M100H to L against FS30-5; also called FS30-5-37 in mAb^2 format) VH: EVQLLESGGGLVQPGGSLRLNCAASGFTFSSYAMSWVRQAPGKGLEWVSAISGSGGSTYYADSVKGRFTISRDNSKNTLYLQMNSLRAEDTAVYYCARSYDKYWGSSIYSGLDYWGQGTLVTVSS VL: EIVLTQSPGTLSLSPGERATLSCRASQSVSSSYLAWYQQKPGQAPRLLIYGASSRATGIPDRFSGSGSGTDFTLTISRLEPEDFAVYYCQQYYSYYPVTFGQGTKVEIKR")
105

FYI, the data here is from patent US12534534.
